# Test system: biotinyl-Met-oxazolone
# experimental_protocol: self-aminoacylation, catalytic enhancement (BMO) (fold over background); higher = more active; k-Seq, kA / k0A0; sequences stand for … in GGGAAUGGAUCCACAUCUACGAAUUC…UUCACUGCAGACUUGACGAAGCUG
Fewer inactive variants are shown than the library holds.
Label met when self-aminoacylation is at or above 3; anything below gets not met.

Data request: API: above_or_equal(metric=self-aminoacylation, cutoff=3) for item CCACGCUUCAAGCAAUCGGAC [Fam1B.1 aminoacylation ribozyme variant]
Data returned: not met

Data request: Same thing, different sequence: AUUGCCAUGGUCAUCGAGUGA [Fam2.1 aminoacylation ribozyme variant]
Data returned: met

Data request: Same thing, different sequence: AUUACCCUGGACAUCCAGUGA [Fam2.1 aminoacylation ribozyme variant]
Data returned: met

Data request: Same thing, different sequence: AUUACCUUGGUCAUCAAGUGA [Fam2.1 aminoacylation ribozyme variant]
Data returned: met

Data request: Same thing, different sequence: AAGUUGGCUAAGAGUCGCAAG [Fam3.1 aminoacylation ribozyme variant]
Data returned: not met

Data request: Same thing, different sequence: AUUCACCUAAGUCAUUGGGUG [Fam2.2 aminoacylation ribozyme variant]
Data returned: met

Data request: Same thing, different sequence: AAGUUUGCUAAUAGUCGUAAA [Fam3.1 aminoacylation ribozyme variant]
Data returned: not met

Data request: Same thing, different sequence: CCAUACUUCAAGCAAUGGGUC [Fam1B.1 aminoacylation ribozyme variant]
Data returned: not met

Data request: Same thing, different sequence: UAGUUUGCUACUAGUCGCAAG [Fam3.1 aminoacylation ribozyme variant]
Data returned: not met

###

# Tested on: biotinyl-Leu-oxazolone
# experimental_protocol: self-aminoacylation, catalytic enhancement (BLO) (fold over background); higher = more active; k-Seq, kA / k0A0; sequences stand for … in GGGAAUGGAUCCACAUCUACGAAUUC…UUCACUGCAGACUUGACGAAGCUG
Fewer inactive variants are shown than the library holds.
Label Met when self-aminoacylation is at or above 2; anything below gets Not met.

Data request: API: above_or_equal(metric=self-aminoacylation, cutoff=2) for item CCACUUCAAACAAUCGGUCUU [Fam1A.1 aminoacylation ribozyme variant]
Data returned: Met

Data request: Same thing, different sequence: CCACUCUUCGAGCAAUCGGUC [Fam1B.1 aminoacylation ribozyme variant]
Data returned: Not met

Data request: Same thing, different sequence: CUACUUGAAUCAAUCGGUCUG [Fam1A.1 aminoacylation ribozyme variant]
Data returned: Not met

Data request: Same thing, different sequence: AUUACCCUGGCCAACGAGUGA [Fam2.1 aminoacylation ribozyme variant]
Data returned: Met

Data request: Same thing, different sequence: AUUACCCUGUACAUCGAGUGA [Fam2.1 aminoacylation ribozyme variant]
Data returned: Met

Data request: Same thing, different sequence: UAGUUUGCUAAUAGUGGCAAG [Fam3.1 aminoacylation ribozyme variant]
Data returned: Not met

Data request: Same thing, different sequence: AUUACCCGGGUCAUCGUGUGA [Fam2.1 aminoacylation ribozyme variant]
Data returned: Met

Data request: Same thing, different sequence: AUUGCUCUGGUCAUCGAGUGA [Fam2.1 aminoacylation ribozyme variant]
Data returned: Met

Data request: Same thing, different sequence: CCACACGUCAAGCAAUCGUUC [Fam1B.1 aminoacylation ribozyme variant]
Data returned: Not met
